assay_system: EGFR V769_D770insASV (insASV) (Homo sapiens, UniProt P00533, INS769ASV)
Sequence (P00533 with tags, fused parts or gaps INS769ASV): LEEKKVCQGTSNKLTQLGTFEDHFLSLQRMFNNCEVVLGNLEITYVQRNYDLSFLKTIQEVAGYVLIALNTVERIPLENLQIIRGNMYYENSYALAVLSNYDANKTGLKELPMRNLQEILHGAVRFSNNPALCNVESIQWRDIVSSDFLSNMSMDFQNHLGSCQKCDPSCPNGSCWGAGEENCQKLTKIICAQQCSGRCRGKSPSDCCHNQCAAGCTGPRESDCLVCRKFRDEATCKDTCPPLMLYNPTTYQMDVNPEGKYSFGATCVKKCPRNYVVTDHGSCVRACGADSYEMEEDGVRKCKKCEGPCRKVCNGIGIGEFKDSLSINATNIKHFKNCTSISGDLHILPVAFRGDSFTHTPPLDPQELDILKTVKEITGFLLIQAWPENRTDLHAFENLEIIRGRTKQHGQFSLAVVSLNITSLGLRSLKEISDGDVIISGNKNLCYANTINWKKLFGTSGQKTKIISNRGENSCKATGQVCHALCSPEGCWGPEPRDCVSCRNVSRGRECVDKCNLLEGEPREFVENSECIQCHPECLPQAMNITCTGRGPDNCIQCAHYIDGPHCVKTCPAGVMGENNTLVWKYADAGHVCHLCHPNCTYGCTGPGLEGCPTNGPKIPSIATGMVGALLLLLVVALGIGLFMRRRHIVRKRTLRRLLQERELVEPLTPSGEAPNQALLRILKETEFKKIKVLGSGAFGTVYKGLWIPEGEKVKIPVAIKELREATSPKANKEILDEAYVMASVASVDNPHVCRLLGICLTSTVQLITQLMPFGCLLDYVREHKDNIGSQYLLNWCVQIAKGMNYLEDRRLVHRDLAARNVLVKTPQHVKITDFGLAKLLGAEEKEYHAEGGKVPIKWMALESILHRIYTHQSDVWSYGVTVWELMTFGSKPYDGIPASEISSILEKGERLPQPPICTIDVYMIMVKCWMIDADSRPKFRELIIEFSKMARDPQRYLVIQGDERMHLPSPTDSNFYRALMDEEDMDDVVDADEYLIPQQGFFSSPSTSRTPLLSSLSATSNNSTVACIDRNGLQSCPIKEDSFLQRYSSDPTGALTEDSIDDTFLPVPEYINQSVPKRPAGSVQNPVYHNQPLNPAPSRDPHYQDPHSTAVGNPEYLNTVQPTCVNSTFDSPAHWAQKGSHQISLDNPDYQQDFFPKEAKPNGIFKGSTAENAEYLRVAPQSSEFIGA
experiment_notes: EGFR autophosphorylation inhibitory activity in NIH3T3-EGFRinsASV cells
condition_description: NIH3T3-EGFRinsASV; 6 hours; read-out: IC50 phosphorylated EGFR, insASV
property_name: pIC50
Reminder that pIC50 is minus the log10 of a molar concentration.

Exercise: Which measured pIC50 value corresponds to C=CC(=O)N[C@H]1C=C(C)c2c(-c3cnc4ccccc4c3)c3c(N)ncnc3n2C1 ?
Solution: 6.71

###

assay_system: EGFR with mutation D770_N771insSVD (Homo sapiens, UniProt P00533, INS770SVD)
Construct: expressed in transfected cells; host or cells: NCI-H1975 (human lung adenocarcinoma), PiggyBac PB-CMV-MCS-EF1-RFP+Puro vector, endogenous EGFR (T790M/L858R) knocked out by TALEN
Sequence (P00533 with tags, fused parts or gaps INS770SVD): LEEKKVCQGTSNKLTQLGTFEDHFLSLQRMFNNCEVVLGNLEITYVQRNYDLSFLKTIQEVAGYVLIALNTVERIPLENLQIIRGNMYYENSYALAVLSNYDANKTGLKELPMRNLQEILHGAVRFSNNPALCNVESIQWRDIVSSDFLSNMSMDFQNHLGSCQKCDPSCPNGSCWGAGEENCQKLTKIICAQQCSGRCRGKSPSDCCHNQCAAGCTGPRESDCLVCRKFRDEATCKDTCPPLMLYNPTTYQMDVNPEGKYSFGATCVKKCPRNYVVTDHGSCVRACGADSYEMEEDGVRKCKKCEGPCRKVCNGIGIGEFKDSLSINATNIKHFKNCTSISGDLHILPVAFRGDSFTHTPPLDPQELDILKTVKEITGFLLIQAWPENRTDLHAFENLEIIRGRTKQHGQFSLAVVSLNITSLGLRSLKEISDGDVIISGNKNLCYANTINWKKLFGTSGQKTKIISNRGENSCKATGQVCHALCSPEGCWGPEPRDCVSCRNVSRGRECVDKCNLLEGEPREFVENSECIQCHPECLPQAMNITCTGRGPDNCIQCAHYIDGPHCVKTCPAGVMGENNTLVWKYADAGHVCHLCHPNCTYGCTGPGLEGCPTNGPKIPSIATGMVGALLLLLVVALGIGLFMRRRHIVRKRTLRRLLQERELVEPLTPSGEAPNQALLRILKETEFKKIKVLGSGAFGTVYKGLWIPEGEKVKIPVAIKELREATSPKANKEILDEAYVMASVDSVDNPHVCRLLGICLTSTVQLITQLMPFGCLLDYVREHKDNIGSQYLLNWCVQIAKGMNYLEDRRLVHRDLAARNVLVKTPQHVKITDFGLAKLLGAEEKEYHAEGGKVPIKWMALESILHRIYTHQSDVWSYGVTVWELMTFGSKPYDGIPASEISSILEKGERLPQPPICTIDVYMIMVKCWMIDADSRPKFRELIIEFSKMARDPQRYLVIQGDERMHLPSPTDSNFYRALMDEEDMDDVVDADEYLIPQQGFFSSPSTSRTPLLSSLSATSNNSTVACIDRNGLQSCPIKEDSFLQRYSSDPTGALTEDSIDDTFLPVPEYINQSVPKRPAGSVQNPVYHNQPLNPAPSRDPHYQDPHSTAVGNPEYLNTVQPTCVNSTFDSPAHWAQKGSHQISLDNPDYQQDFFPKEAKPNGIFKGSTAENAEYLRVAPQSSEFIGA
experiment_notes: Phosphorylated EGFR inhibitory activity in H1975-EGFRinsSVD cells (Simple Western)
Assay type: cell-based
condition_description: H1975-EGFRinsSVD cells; 6 hours; Tyr1068
property_name: pIC50
Recall that pIC50 is obtained by taking minus log10 of the concentration measured in molar.

Exercise: For C=CC(=O)N[C@H]1C=C(C)c2c(-c3cnc4ccccc4c3)c3c(N)ncnc3n2C1 [Compound A] , what is its reported pIC50?
Solution: 7.64
